# Tested on: cucumber downy mildew
# PROTOCOL DETAILS: protectant activity in vivo against cucumber downy mildew
# CONDITION SET: 25 ppm
VALUE KIND: protectant activity against cucumber downy mildew in vivo

Reference set, count: 5
>>> print(df.to_string())
                                   molecule  measured
0  CCc1ncnc(NCCc2ccc(Oc3ccc(Cl)cc3Cl)nc2)c1Cl [III-262]      100%
1  CCc1ncnc(NCCc2ccc(Oc3ccc(C#N)cn3)cc2)c1Cl [Compound I-255]      100%
2  CCc1ncnc(NCCc2ccc(Oc3cccc(C(F)(F)F)c3)nc2)c1Cl [III-201]      100%
3  Cc1nc(Cl)c(Cl)c(NCCc2ccc(Oc3cccc(Cl)c3)nc2)n1 [III-2526]      100%
4  Cc1ncnc(NCCc2ccc(Oc3ccc(C(F)(F)F)cc3Cl)nc2)c1Cl [III-121]      100%

Query block: Using the record for Cc1ncnc(NCCc2ccc(Oc3ccccc3Cl)nc2)c1Cl [III-5] , report its protectant activity against cucumber downy mildew in vivo.
Result block: 100%

Query block: Given the entry Cc1nc(Cl)c(Cl)c(NCCc2ccc(Oc3ccc(Cl)cc3)nc2)n1 [III-2527] , report its measured protectant activity against cucumber downy mildew in vivo.
Result block: 100%

Query block: If you can, please state the reported protectant activity against cucumber downy mildew in vivo value of FC(F)c1ncnc(NCCc2ccc(Oc3ccccc3)nc2)c1Cl [III-541] .
Result block: 100%

* * *

List of Insecticidal activity against peach aphid (%) values.
# System: Green peach aphids (Myzus Persicae Sulzer)
# PROTOCOL DETAILS: bioactivity test against green peach aphid, airbrush foliar spray
# Assay type: in vivo
# CONDITION SET: 100 mg/L; contrastive test
Your answer should be a plain number; it is taken to be in %.

Solved entries (count: 4):
In [3]: df
Out[3]:
                                   compound  measured
0  CCc1ncnc(NCCc2ccc(Oc3ccc(C#N)cc3F)cc2)c1Cl [II-482]       100
1  CCc1ncnc(NC(C)c2ccc(Oc3ccc(F)cc3)nc2)c1Cl (centres unmarked) [CK9, reference compound]        79
2  CCc1ncnc(NCCc2ccc(Oc3ccc(C(F)(F)F)cn3)cc2)c1Cl [Compound I-6765]       100
3  CCc1ncnc(NCCc2ccc(Oc3ccc(C(F)(F)F)cn3)cc2)c1Cl [Compound I-6756]       100

// moving on: another record for Insecticidal activity against peach aphid (%)
Query block: Record request: Insecticidal activity against peach aphid (%) value, item Cc1ncnc(NCCc2ccc(Oc3ccc(Cl)cc3)cc2)c1Cl [II-19]
Result block: 100

* * *

Parameter pest or weed control at 25 µg/mL: see the listing below.
# Test system: corn rust
# PROTOCOL DETAILS: protectant activity in vivo against corn rust
# CONDITION SET: Zea mays, 168 h, read-out: control effect against corn rust (%), 25 mg/L; protectant activity
The answer is to be given in %; state only the numeric part.

Query block: Missing value: pest or weed control at 25 µg/mL, corn rust, entry FC(F)c1ncnc(NCCc2ccc(Oc3ccc(Cl)cc3)cc2)c1Cl [II-8915] . Fill in?
Result block: 100

Query block: Can you look up pest or weed control at 25 µg/mL on corn rust for CCc1ncnc(NCc2ccc(Oc3ccc(C(F)(F)F)cc3)cc2)c1Cl [CK54, reference compound] ?
Result block: 30

Query block: Hi! What's the reported pest or weed control at 25 µg/mL for Cc1nc(Cl)cc(NCCc2ccc(Oc3ccc(C#N)cn3)cc2)n1 [CK84, reference compound] on corn rust?
Result block: 60

* * *

# System: carmine spider mite
# PROTOCOL DETAILS: bioactivity test against carmine spider mite, airbrush spray
# Format: in vivo
# CONDITION SET: 2.5 mg/L
Reported Insecticidal activity against carmine spider mite (% ) values are given for each entry in this list.
Provide the reading as a plain figure in %.

                                   compound  measured
0  CCc1ncnc(NCCc2ccc(Oc3ccc(C(F)(F)F)cn3)cc2)c1Cl [Compound I-6756]        71

Query block: Query: Insecticidal activity against carmine spider mite (% ); subject: "CCc1ncnc(NCCc2ccc(Oc3ccc(C(F)(F)F)cc3)cc2)c1Cl.Cl"
Result block: 87

Query block: Tell me the measured Insecticidal activity against carmine spider mite (% ) of CC(Cl)c1ncnc(NCCc2ccc(Oc3ccc(C(F)(F)F)cn3)cc2)c1Cl (stereo not shown) [CK24, reference compound] , please.
Result block: 5

Query block: State the recorded Insecticidal activity against carmine spider mite (% ) for this entry: "CCc1ncnc(NCCc2ccc(Oc3ccc(C#N)cc3F)cc2)c1Cl"
Result block: 93

Query block: So what's the measured Insecticidal activity against carmine spider mite (% ) for this one? "CCc1ncnc(NCCc2ccc(Oc3ccc(C(F)(F)F)cc3)cc2)c1Cl"
Result block: 75

Query block: I am curious: what Insecticidal activity against carmine spider mite (% ) value has been reported for CCc1ncnc(NCCc2ccc(Oc3ccc(C(F)(F)F)cn3)cc2)c1Cl [Compound I-254] ?
Result block: 79

Query block: Which Insecticidal activity against carmine spider mite (% ) is listed for CCc1ncnc(NCCc2ccc(Oc3ccc(C(F)(F)F)cn3)cc2)c1Cl [Compound I-6757] ?
Result block: 75

* * *

# Tested on: Diamond back moth
# PROTOCOL DETAILS: insecticidal activity against diamond back moth, airbrush spray
# Assay type: in vivo
# CONDITION SET: 100 mg/L
VALUE KIND: Insecticidal activity against diamond back moth (%)
API: value field is a number in %; no unit string.

                                   compound  reading_unit  measured
0  CCc1ncnc(NCCc2ccc(Oc3ccc(C)cc3)nc2)c1Cl [III-196]             %       100

Query block: # lookup: Insecticidal activity against diamond back moth (%) of CCc1ncnc(NCCc2ccc(Oc3ccc(C#N)cn3)cc2)c1Cl [Compound I-255]
Result block: 100

Query block: Need Insecticidal activity against diamond back moth (%) of Cc1ncnc(NCCc2ccc(Oc3ccc(Cl)cc3)cc2)c1Cl [II-19] , thanks.
Result block: 100

Query block: Query: Insecticidal activity against diamond back moth (%); subject: CCc1ncnc(NC(C)c2ccc(Oc3ccc(F)cc3)nc2)c1Cl (stereo not shown) [CK9, reference compound]
Result block: 45

* * *

Reported pest or weed control at 100 µg/mL is given for each of the following molecules.
# System: carmine spider mite
# PROTOCOL DETAILS: bioactivity test against carmine spider mite, airbrush spray
# Assay type: in vivo
# CONDITION SET: Tetranychus cinnabarinus, 72 h, 100 mg/L; contrastive test; read-out: Insecticidal activity against carmine spider mite (% )
Your answer is read as %, so omit the unit and give the number.

In [3]: df
Out[3]:
                                   molecule  reading_unit  measured
0  Cc1ncnc(NC(C)c2ccc(Oc3ncc(C(F)(F)F)cc3Cl)cc2)c1Cl (centres unmarked) [CK27, reference compound]             %       100
1  CCC(Nc1ncnc(C)c1Cl)c1ccc(Oc2ccc(C(F)(F)F)cn2)cc1 (centres unmarked) [CK41, reference compound]             %        99
2  Cc1ncnc(NC(C)c2ccc(Oc3ccc(C(F)(F)F)cn3)cc2)c1Cl (centres unmarked) [CK28, reference compound]             %       100
3  Cc1ncnc(NC(C)c2ccc(Oc3ccc(C(F)(F)F)cc3Cl)cc2)c1Cl (centres unmarked) [CK30, reference compound]             %       100
4  CC(Cl)c1ncnc(NCCc2ccc(Oc3ccc(C(F)(F)F)cc3)cc2)c1Cl (centres unmarked) [CK20, reference compound]             %        72

Query block: Reported pest or weed control at 100 µg/mL, molecule CCc1ncnc(NCc2ccc(Oc3ncc(C(F)(F)F)cc3Cl)cc2)c1Cl [CK38, reference compound] : ____
Result block: 37

Query block: Reported pest or weed control at 100 µg/mL for Cc1ncnc(NC(=O)Cc2ccc(Oc3ccc(C(F)(F)F)cn3)cc2)c1Cl [CK56, reference compound] : what is it?
Result block: 25

Query block: Which pest or weed control at 100 µg/mL value is on record for Cc1ncnc(NCc2ccc(Oc3ccc(C(F)(F)F)cc3)cc2)c1Cl [CK53, reference compound] ?
Result block: 100

* * *

# System: corn rust
# PROTOCOL DETAILS: protectant activity in vivo against corn rust
# CONDITION SET: Zea mays, 168 h, read-out: control effect against corn rust (%), 1.6 mg/L; protectant activity
VALUE KIND: pest or weed control at 1.6 µg/mL (%)
Numeric answer only, unit % assumed.

>>> print(df.to_string())
                                   compound        tgt  measured
0  CCC(Nc1ncnc(C)c1Cl)c1ccc(Oc2ccc(C(F)(F)F)cn2)cc1 (stereo not drawn) [CK41, reference compound]  corn rust        20
1  Cc1ncnc(NCCc2ccc(Oc3ccc(C(F)(F)F)cn3)cc2)c1Cl  corn rust        50

Please examine the following record next.
Query block: Recorded pest or weed control at 1.6 µg/mL for CCc1ncnc(NC(C)c2ccc(Oc3ccc(C(F)(F)F)cn3)cc2)c1Cl (stereo not drawn) [CK40, reference compound] , please?
Result block: 30
